test system: 242566-281-R-J2-PDC complex spheroid viability; experiment: Anticancer human tumor 242566-281-R-J2-PDC patient-derived pancreatic carcinoma cell line growth inhibition [RAS]; conditions: curve of first compound; second compound 1 µM;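 also: spheroids exposed to compound for 7 days before readout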
Measurement Kind: IC50 (nM)

# annotated cases, reported IC50 shown
| Molecule | IC50, nM |
| --- | --- |
| CCC(CC)c1cc(NC2CCC(N)C2)n2nccc2n1 (centres undefined) + C=CC(=O)N1CCN(c2nc(OCC3CCCN3C)nc3c(F)c(-c4nc(N)cc(C)c4C(F)(F)F)c(Cl)cc23)C(C)C1 | 4550 |
| CCC(CC)c1cc(NC2CCC(N)C2)n2nccc2n1 (centres undefined) + C#Cc1c(F)ccc2cc(O)cc(-c3ncc4c(N5CC6CCC(C5)N6)nc(OCC56CCCN5CC(F)C6)nc4c3F)c12 | 893 |
| CC(Nc1ccc2c(c1)OCCn1cc(N3C(=O)OCC3C(F)F)nc1-2)C(N)=O (centres undefined) + C=CC(=O)N1CCN(c2nc(OCC3CCCN3C)nc3c(F)c(-c4nc(N)cc(C)c4C(F)(F)F)c(Cl)cc23)C(C)C1 | 1290 |
| CC(Nc1ccc2c(c1)OCCn1cc(N3C(=O)OCC3C(F)F)nc1-2)C(N)=O (centres undefined) + C#Cc1c(F)ccc2cc(O)cc(-c3ncc4c(N5CC6CCC(C5)N6)nc(OCC56CCCN5CC(F)C6)nc4c3F)c12 | 60.3 |

P: CC1(O)CCCC1n1c(=O)c(C(F)F)cc2cnc(NC3CCN(S(C)(=O)=O)CC3)nc21 (centres undefined) + C=CC(=O)N1CCN(c2nc(OCC3CCCN3C)nc3c(F)c(-c4nc(N)cc(C)c4C(F)(F)F)c(Cl)cc23)C(C)C1
Q: Nc1ccn(C2OC(CO)C(O)C2(F)F)c(=O)n1 (centres undefined) + C#Cc1c(F)ccc2cc(O)cc(-c3ncc4c(N5CC6CCC(C5)N6)nc(OCC56CCCN5CC(F)C6)nc4c3F)c12
Q: // pick min by IC50: P , Q Kindly state the label of the option you pick.
A: Q
(Q: 10.2 nM, P: 9010 nM)

A: CC(C)n1nc(-c2ccc3oc(N)nc3c2)c2c(N)ncnc21 + C#Cc1c(F)ccc2cc(O)cc(-c3ncc4c(N5CC6CCC(C5)N6)nc(OCC56CCCN5CC(F)C6)nc4c3F)c12
B: CC(C)NCC(C(=O)N1CCN(c2ncnc3c2C(C)CC3O)CC1)c1ccc(Cl)cc1 (centres undefined) + C#Cc1c(F)ccc2cc(O)cc(-c3ncc4c(N5CC6CCC(C5)N6)nc(OCC56CCCN5CC(F)C6)nc4c3F)c12
Q: Determine, for A and B , which has the greater value of IC50. Answer = label.
A: B

A: O=C(c1ccc(F)c(F)c1Nc1ccc(I)cc1F)N1CC(O)([C@@H]2CCCCN2)C1 + C=CC(=O)N1CCN(c2nc(OCC3CCCN3C)nc3c(F)c(-c4nc(N)cc(C)c4C(F)(F)F)c(Cl)cc23)C(C)C1
B: Cc1nc(N2CCC3(CC2)COC(C)C3N)c(CO)nc1Sc1ccnc(N)c1Cl (centres undefined) + C#Cc1c(F)ccc2cc(O)cc(-c3ncc4c(N5CC6CCC(C5)N6)nc(OCC56CCCN5CC(F)C6)nc4c3F)c12
Q: Returns: the label, A or B , whose recorded IC50 is the lower number. The response must carry the label of the picked entry.
A: B
